- Test system: ducksalad
- MEASUREMENT_DESCRIPTION: Test C flooded paddy test
- Assay type: in vivo, Heteranthera limosa
- CONDITION_DETAILS: 500 g ai/ha, visual rating after 12 to 14 days, scale 0 to 100 (0 no effect, 100 complete control)
# maps each entry to its Plant response rating, Ducksalad
PARAMETER_MEASURED: Plant response rating, Ducksalad

SMILES_RECORD: CCn1nc(C(C)(C)C)cc1C(=O)Nc1cncc(C(=O)N2CC=CC2)n1
TARGET_SYSTEM: ducksalad
PARAMETER_MEASURED: Plant response rating, Ducksalad
MEASUREMENT: 70
--
SMILES_RECORD: C=CCn1nc(C(C)(C)C)cc1C(=O)Nc1cccc(C(=O)NCC)c1
TARGET_SYSTEM: ducksalad
PARAMETER_MEASURED: Plant response rating, Ducksalad
MEASUREMENT: 75
--
SMILES_RECORD: CCn1nc(C(C)(C)C)cc1C(=O)Nc1cccc(C(=O)NC(C)C)c1
TARGET_SYSTEM: ducksalad
PARAMETER_MEASURED: Plant response rating, Ducksalad
MEASUREMENT: 85

From: patent US20060069132A1
